- protocol-summary: PK in the blood of infected Pf/SCID mice
- Format: in vivo, mouse
- experimental-context: SCID, mouse, whole blood; 10 mg kg-1, one compartment POPK model
measured-endpoint: CL/F (mL/min/kg)
Write the answer as a number in mL/min/kg, unit excluded.

In: What measured CL/F goes with Cc1nc(Nc2ncc(N3CCNC(C)C3)c(Nc3cc(C)n(C)n3)n2)cc(C2CC2)c1F.Cl.Cl (stereo not shown) ?
Out: 122

###

- protocol-summary: Rat blood PK, IV and oral
- Format: in vivo
- experimental-context: Wistar, rat, whole blood, po, 10 mg/kg, Oral 10 mg kg-1, Rat 2; read-out: F
measured-endpoint: bioavailability
Put your answer as a value accompanied by its unit after it.

In: What measured bioavailability goes with Cc1nc(Nc2ncc(N3CCN(C)[C@H](C)C3)c(Nc3cc(C)n(C)n3)n2)cc(C2CC2)c1F ?
Out: 52%
